- Test system: LXR
- Construct: fused on or other part: GST fused to the LBD in the FRET assay
- procedure text: Measured EC50 or IC50 for LXR (LXRα and/or LXRβ; assay and subtype not given)
- particulars: IC50 or EC50 class, subtype not specified

[
  {
    "smi": "CS(=O)(=O)c1ccc(C#Cc2cc(C(F)(F)F)nn2-c2ccccc2Cl)cc1",
    "test system": "LXR",
    "EC50": "< 1000 nM"
  },
  {
    "smi": "CCS(=O)(=O)c1cccc(-c2ccc(-n3cc(C4=NC(C)(C)CO4)nc3-c3c(Cl)cccc3Cl)c(Cl)c2)c1",
    "test system": "LXR",
    "EC50": "< 1000 nM"
  },
  {
    "smi": "CC(C)(C(=O)O)c1cccc(-c2ccc(OCc3cc(C(F)(F)F)nn3-c3ccccc3Cl)cc2)c1",
    "test system": "LXR",
    "EC50": "1000 to 10000 nM"
  },
  {
    "smi": "CC1(C)CSC(c2cn(-c3ccc(-c4cccc(S(C)(=O)=O)c4)cc3Cl)c(-c3c(Cl)cccc3Cl)n2)=N1",
    "test system": "LXR",
    "EC50": "< 1000 nM"
  },
  {
    "smi": "O=C(O)c1cc2cc(OCc3cc(C(F)(F)F)nn3-c3ccccc3Cl)ccc2[nH]1",
    "test system": "LXR",
    "EC50": "> 10000 nM"
  },
  {
    "smi": "CC(C)(O)c1cc(-c2ccc(-c3cccc(S(C)(=O)=O)c3)cc2)n(-c2c(Cl)cccc2Cl)n1",
    "test system": "LXR",
    "EC50": "< 1000 nM"
  },
  {
    "smi": "O=C(O)Cc1cccc(-c2ccc(OCc3cc(C(F)(F)F)nn3-c3ccccc3Cl)cc2)c1",
    "test system": "LXR",
    "EC50": "> 10000 nM"
  }
]
